molecular target: TDP-43 (Homo sapiens, UniProt Q13148)
Sequence (Q13148 whole entry): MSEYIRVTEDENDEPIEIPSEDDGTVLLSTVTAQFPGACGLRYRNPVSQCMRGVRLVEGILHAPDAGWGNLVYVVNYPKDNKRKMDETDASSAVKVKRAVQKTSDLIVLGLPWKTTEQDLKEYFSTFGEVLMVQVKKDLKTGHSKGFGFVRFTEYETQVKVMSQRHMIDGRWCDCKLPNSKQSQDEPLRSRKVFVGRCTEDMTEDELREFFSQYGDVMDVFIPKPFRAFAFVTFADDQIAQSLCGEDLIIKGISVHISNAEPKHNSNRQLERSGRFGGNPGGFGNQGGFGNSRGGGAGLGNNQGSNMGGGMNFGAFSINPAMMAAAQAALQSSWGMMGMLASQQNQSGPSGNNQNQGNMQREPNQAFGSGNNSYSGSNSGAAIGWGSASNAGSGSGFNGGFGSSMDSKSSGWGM
Where a name gives a salt, the structure may show the parent alone.
endpoint-label: IC50 (nM)
Response body: numeric value in nM, unit text excluded.

Q. # get_value(readout='IC50', item= COc1ccc(-c2cc(NCCCNCC3CCN(CC4CC4)CC3)c3ccccc3n2)cc1 [Example 71, trihydrochloride] )
A. 100

***
Q. # get_value(readout='IC50', item= COc1ccc(-c2cc(NCCCNCC3CCN(C(=O)OC(C)(C)C)CC3)c3ccccc3n2)cc1 )
A. 1160

Q. # get_value(readout='IC50', item= NCCCNc1cc(-c2ccc(-n3cc4c(n3)CNC4)cc2)nc2ccccc12 )
A. 40

Q. # get_value(readout='IC50', item= CN(C)CCCNc1cc(-c2ccc3ncccc3c2)nc2ccccc12 )
A. 800

Q. # get_value(readout='IC50', item= COc1ccc(-c2cc(NCCC(=O)N(C)C)c3ccccc3n2)cc1 )
A. 52600

Q. # get_value(readout='IC50', item= COc1ccc(-c2cc(NCCCNCCCO)c3ccccc3n2)cc1 )
A. 900

Q. # get_value(readout='IC50', item= COc1ccc(-c2cc(NCCCNc3ccc(N4CCCCC4)cc3)c3ccccc3n2)cc1 [Example 55, dihydrochloride] )
A. 970

Q. # get_value(readout='IC50', item= COc1ccc(-c2cc(NCCC(=O)OC(C)(C)C)c3ccccc3n2)cc1 )
A. 65300

Q. # get_value(readout='IC50', item= COc1ccc(-c2cc(NCCCN(C)C)c3ccccc3n2)cc1 )
A. 2720

====

target: TDP-43 (Homo sapiens, UniProt Q13148)
Counter-ions that a name gives are not always drawn.
endpoint-label: IC50 (µM)
Response body: numeric value in µM, unit text excluded.

Worked set:
Q. Recall the recorded IC50 for NC1CCC(Nc2cc(-c3ccc(N4CCNCC4)cc3)nc3ccccc23)CC1 (stereo not shown) with TDP-43 (Homo sapiens, UniProt Q13148) and state it.
A. 0.08

Q. Recall the recorded IC50 for COc1ccc(-c2cc(NC3CCN(CCCN4C(=O)c5ccccc5C4=O)CC3)c3ccccc3n2)cc1 [Example 64, dihydrochloride] with TDP-43 (Homo sapiens, UniProt Q13148) and state it.
A. 3.6

Q. Recall the recorded IC50 for COc1ccc(-c2cc(NCCCN3CC4CNCC4C3)c3ccccc3n2)cc1 (stereo not shown) with TDP-43 (Homo sapiens, UniProt Q13148) and state it.
A. 0.24

***
Q. Recall the recorded IC50 for COc1ccc(-c2cc(N[C@H]3C[C@H](N)C3)c3cc(OC)c(OC)cc3n2)cc1 with TDP-43 (Homo sapiens, UniProt Q13148) and state it.
A. 0.13

Q. Recall the recorded IC50 for CN(C)CCCNc1cc(-c2ccc3occc3c2)nc2ccccc12 with TDP-43 (Homo sapiens, UniProt Q13148) and state it.
A. 1.28

Q. Recall the recorded IC50 for COc1ccc(-c2cc(NCCCNCc3ccnn3C)c3ccccc3n2)cc1 [Example 53, dihydrochloride] with TDP-43 (Homo sapiens, UniProt Q13148) and state it.
A. 3.27

Q. Recall the recorded IC50 for COc1ccc(-c2cc(N[C@H]3CC[C@@H](N)CC3)c3cc(OC)c(OC)cc3n2)cc1 with TDP-43 (Homo sapiens, UniProt Q13148) and state it.
A. 0.23

====

What follows is a record of pIC50 for TDP-43 (Homo sapiens).
Counter-ions that a name gives are not always drawn.
Schema: pIC50 number; meaning minus log10 of the concentration expressed in molar units.

Worked set:
Q. # get_value(readout='pIC50', item= NCCCNc1cc(C2=CCNCC2)nc2ccccc12 [Example 120] )
A. 6.06

Q. # get_value(readout='pIC50', item= COc1ccc(-c2cc(NCCCNCCc3ccccn3)c3ccccc3n2)cc1 [Example 54, hydrochloride] )
A. 5.72

***
Q. # get_value(readout='pIC50', item= CN1CCC(n2cc(-c3cc(NCCCN)c4ccccc4n3)cn2)CC1 [Example 93] )
A. 7.05

Q. # get_value(readout='pIC50', item= COc1ccc(-c2cc(NCCCN3CC4CN(C(=O)OC(C)(C)C)CC4C3)c3ccccc3n2)cc1 (stereo not drawn) [Example 27] )
A. 5.68

Q. # get_value(readout='pIC50', item= COc1ccc(CN(C)CCCNc2cc(-c3ccc(OC)cc3)nc3ccccc23)cc1 [Example 60] )
A. 5.71

Q. # get_value(readout='pIC50', item= COc1ccc2nc(C(F)(F)F)cc(NCCCN(C)C)c2c1 [Example 143] )
A. 4.10

====

target: TDP-43 (Homo sapiens)
Where a name gives a salt, the structure may show the parent alone.
endpoint-label: pIC50
Schema: pIC50 number; meaning minus log10 of the concentration expressed in molar units.

Worked set:
Q. Recall the recorded pIC50 for COc1ccc(-c2cc(NCCCN3CC4CCC(N)C4C3)c3ccccc3n2)cc1 (stereo not shown) [Example 34, trihydrochloride] with TDP-43 (Homo sapiens) and state it.
A. 6.68

Q. Recall the recorded pIC50 for COc1ccc(-c2cc(NCCCNCCCN3CCCCC3)c3ccccc3n2)cc1 [Example 4, trihydrochloride] with TDP-43 (Homo sapiens) and state it.
A. 6.66

Q. Recall the recorded pIC50 for COc1ccc(-c2cc(NCCCNC3CCC4CN(Cc5ccccc5)CC43)c3ccccc3n2)cc1 (stereo not shown) [Example 70, trihydrochloride] with TDP-43 (Homo sapiens) and state it.
A. 6.77

Q. Recall the recorded pIC50 for COc1cc2nccc(NCCCN(C)CCCN)c2cc1OC with TDP-43 (Homo sapiens) and state it.
A. 6.39

Q. Recall the recorded pIC50 for COc1ccc(-c2cc(NCCCNC3CCC4CNCC43)c3ccccc3n2)cc1 (stereo not shown) [Example 33, dihydrochloride] with TDP-43 (Homo sapiens) and state it.
A. 6.74

***
Q. Recall the recorded pIC50 for COc1ccc(-c2cc(NCCCN3CCOCC3)c3ccccc3n2)cc1 with TDP-43 (Homo sapiens) and state it.
A. 5.20

Q. Recall the recorded pIC50 for COc1ccc(-c2cc(NCCCNCCCNC(=O)OC(C)(C)C)c3ccccc3n2)cc1 with TDP-43 (Homo sapiens) and state it.
A. 6.12

Q. Recall the recorded pIC50 for CN(C)CCCNc1cc(-c2cnn(C3CC3)c2)nc2ccccc12 with TDP-43 (Homo sapiens) and state it.
A. 5.82

Q. Recall the recorded pIC50 for COc1ccc(-c2cc(NCCCN3CCN(CCCN)CC3)c3ccccc3n2)cc1 [Example 46, hydrochloride] with TDP-43 (Homo sapiens) and state it.
A. 6.44

Q. Recall the recorded pIC50 for NCCCNc1cc(-c2cnn(C3CCNCC3)c2)nc2ccccc12 with TDP-43 (Homo sapiens) and state it.
A. 6.92

Q. Recall the recorded pIC50 for COc1ccc(-c2cc(NCCCNC3CCN(Cc4ccc(F)cc4)CC3)c3ccccc3n2)cc1 with TDP-43 (Homo sapiens) and state it.
A. 6.52

Q. Recall the recorded pIC50 for Cn1cc(-c2cc(NCCCN)c3ccccc3n2)cn1 with TDP-43 (Homo sapiens) and state it.
A. 5.89

Q. Recall the recorded pIC50 for COc1ccc(-c2cc(NCCCN(C)Cc3ccc(N)nc3)c3ccccc3n2)cc1 with TDP-43 (Homo sapiens) and state it.
A. 5.95

Q. Recall the recorded pIC50 for COc1ccc(-c2cc(NCCCN(C)CC(O)CN(C)C)c3ccccc3n2)cc1 (stereo not shown) with TDP-43 (Homo sapiens) and state it.
A. 6.66

Q. Recall the recorded pIC50 for CN(C)CCCNc1cc(-c2ccc(N3CCN(C)CC3)cc2)nc2ccccc12 with TDP-43 (Homo sapiens) and state it.
A. 6.51

Q. Recall the recorded pIC50 for CN(C)CCCNc1cc(-c2ccc(N3CCNCC3)cc2)nc2ccc(F)cc12 with TDP-43 (Homo sapiens) and state it.
A. 6.66
